system: OVCAR-3 ovarian; assay: NCI tumour cell line growth inhibition, 48 h; in the data active = GI50 below about 0.43 µM; inactive = the rest
Write down one outcome, taken from yes (1) = active, no (0) = inactive

## Task For this compound, state the assay outcome: CCOP(=O)(OCC)C(NC(c1ccccc1)c1ccccc1)c1cccc2ccccc12 (stereo not drawn)
## Result no (0)

## Task For this compound, state the assay outcome: CCN(CC)C(=S)SS(=O)(=O)c1ccc([N+](=O)[O-])cc1
## Result no (0)

## Task For this compound, state the assay outcome: CC1OC2CC(=O)OC2C2=C1C(=O)c1c(O)c3c(c(O)c1C2=O)C1CC(O)C3(O)C(C)O1 (stereo not drawn)
## Result yes (1)

## Task For this compound, state the assay outcome: COc1cc[nH]c1/C=C1\C(=O)Nc2ccc(F)c(I)c21
## Result no (0)

## Task For this compound, state the assay outcome: CC(=O)O[C@@H]1CC2C(C)(C)CCCC2(C)C2=C1C(=O)C(C(C)C)=CC2=O (stereo partly drawn)
## Result no (0)

## Task For this compound, state the assay outcome: COc1cc(Nc2nc(N[C@H]3CCCC[C@@H]3N)nc3cc[nH]c(=O)c23)cc(OC)c1
## Result no (0)

## Task For this compound, state the assay outcome: COC(=O)CNC(=O)[C@@H](OC)[C@@H]1Cc2cc3cc(OC4CC(OC5CC(O)C(O)C(C)O5)C(O)C(C)O4)c(C)c(O)c3c(O)c2C(=O)[C@H]1OC1CC(OC2CC(OC3CC(C)(O)C(O)C(C)O3)C(O)C(C)O2)C(O)C(C)O1 (stereo partly drawn)
## Result yes (1)

## Task For this compound, state the assay outcome: CC(=O)[O-].CC(=O)[O-].[NH2-].[Pt+2].c1ccc2cnccc2c1
## Result no (0)

## Task For this compound, state the assay outcome: C=C1CC[C@@H]2[C@](C)(COC(C)=O)[C@H](OC(C)=O)CC[C@@]2(C)[C@@H]1CC(Nc1ccc(S(=O)(=O)Nc2nccc(C)n2)cc1)C1=CCOC1=O (stereo partly drawn)
## Result no (0)

## Task For this compound, state the assay outcome: Fc1cccc(COc2ccc(Nc3ncnc4cc(-c5ccc[nH]5)sc34)cc2Cl)c1
## Result yes (1)

## Task For this compound, state the assay outcome: CC(=O)Nc1ccc2c(c1)oc(=O)c1cc(NC(C)=O)ccc12
## Result no (0)

## Task For this compound, state the assay outcome: CCN(Cc1ccccc1OC)c1ccc(CO)c(Cl)c1
## Result no (0)

## Task For this compound, state the assay outcome: Cc1nc2sc(C(=O)Nc3ccccc3)c(N)c2cc1C(=O)/C=C/c1ccccc1
## Result no (0)

## Task For this compound, state the assay outcome: CCCCN(Cc1ccc(F)cc1)c1ccc(CO)c(Cl)c1
## Result no (0)

## Task For this compound, state the assay outcome: Cn1ccnc1C(=O)/C=C/c1ccc(CC(=O)Nc2ccccc2)cc1
## Result no (0)

## Task For this compound, state the assay outcome: CN(C)c1ccc2cc(-c3ccccc3F)c(N)nc2c1
## Result no (0)

## Task For this compound, state the assay outcome: CO/N=C(\C)c1ccc(Nc2cc(-c3ccccc3)nc3c(O)cccc23)cc1
## Result no (0)

## Task For this compound, state the assay outcome: C[C@@H]1CN(CC(=O)N2CC(C)(C)c3nc(CO)c(Cc4ccc(F)cc4)cc32)[C@@H](CN2CCOC[C@H]2C)CN1
## Result no (0)
